procedure_text: Cytotoxicity against human L02 cells as inhibition of cell viability at 80 uM after 24 hrs by MTT assay
Type: cell-based
measurement_conditions: L02 cells, read-out: INH
assay_endpoint: cytotoxicity at 24 h, 80 µM (%)
One number for each entry, in %.

// solved cases for cytotoxicity at 24 h, 80 µM follow
1) COc1ccc2cccc(CCNC(=O)C3CN(S(C)(=O)=O)C3)c2c1 :: 4.4
2) COc1cc(OC)cc(C(=O)N2CC(C(=O)NCCc3cccc4ccc(OC)cc34)C2)c1 :: 13.1
3) COc1ccc2cccc(CCNC(=O)C3CN(C(=O)c4ccccn4)C3)c2c1 :: 11.2

Query: What does the data say about its cytotoxicity at 24 h, 80 µM? Entry: COc1ccc2cccc(CCNC(=O)C3CN(C(C)=O)C3)c2c1
Result: 2.3

----------
Tested on: PC-12
procedure_text: Neurorestorative activity against H2O2-induced oxidant injury in rat PC12 cells assessed as restorative rate at 10 uM measured after 48 hrs pretreated with 200 uM H2O2 for 1 hr by MTT assay
Assay type: functional
Calls of active or inactive are those of the source. No cut-off for these calls is given here.
assay_endpoint: Activity

// solved cases for Activity follow
1. COc1ccc2cccc(CCNC(=O)C3CN(S(=O)(=O)N(C)C)C3)c2c1 :: inactive
2. COc1ccc2cccc(CCNC(=O)C3CN(C(=O)c4ccc(Cl)cc4)C3)c2c1 :: 0.3%
3. COc1ccc2cccc(CCNC(C)=O)c2c1 :: inactive
4. COc1ccc2cccc(CCNC(=O)C3CN(C(=O)c4ccccc4)C3)c2c1 :: 2.9%
5. CCC(=O)N1CC(C(=O)NCCc2cccc3ccc(OC)cc23)C1 :: inactive
6. COc1ccc2cccc(CCNC(=O)C3CN(C(=O)c4ccc(C(F)(F)F)cc4)C3)c2c1 :: inactive
7. COc1ccc2cccc(CCNC(=O)C3CN(C(=O)c4ccco4)C3)c2c1 :: inactive
8. COc1ccc2cccc(CCNC(=O)C3CN(C(=O)C(F)(F)F)C3)c2c1 :: inactive
9. COc1ccc2cccc(CCNC(=O)C3CN(C(=O)OCc4ccccc4)C3)c2c1 :: 3.2%
10. COc1ccc2cccc(CCNC(=O)C3CN(C(=O)c4ccncc4Cl)C3)c2c1 :: inactive

Provide Activity values for the following items, in order.
1. COc1cc(OC)cc(C(=O)N2CC(C(=O)NCCc3cccc4ccc(OC)cc34)C2)c1
2. COc1ccc2cccc(CCNC(=O)C3CN(C(=O)c4ccccn4)C3)c2c1

Result:
inactive
0.7%

Provide Activity values for the following items, in order.
1. COc1ccc2cccc(CCNC(=O)C3CN(C(=O)c4ccc(C#N)cc4)C3)c2c1
2. COc1ccc2cccc(CCNC(=O)C3CN(C(C)=O)C3)c2c1
3. COc1ccc2cccc(CCNC(=O)C3CN(C(=O)c4cc([N+](=O)[O-])cc([N+](=O)[O-])c4)C3)c2c1
4. COc1ccc2cccc(CCNC(=O)C3CN(S(C)(=O)=O)C3)c2c1
5. COc1ccc2cccc(CCNC(=O)C3CN(C(=O)N(C)C)C3)c2c1

Result:
1: inactive; 2: inactive; 3: inactive; 4: 0.9%; 5: inactive

----------
procedure_text: Cytotoxicity against human L02 cells as inhibition of cell viability at 80 uM after 24 hrs by MTT assay
Format: cell-based
measurement_conditions: L02 cells, read-out: INH
assay_endpoint: cytotoxicity at 24 h, 80 µM (%)
Numbers only, in %.

// solved cases for cytotoxicity at 24 h, 80 µM follow
1. COc1ccc2cccc(CCNC(=O)C3CN(S(=O)(=O)c4ccc(Cl)cc4)C3)c2c1 :: 33.6
2. COc1ccc2cccc(CCNC(=O)C3CN(S(=O)(=O)c4ccc(C)cc4)C3)c2c1 :: 2.7
3. COc1ccc2cccc(CCNC(=O)C3CN(C(=O)c4ccc(C(F)(F)F)cc4)C3)c2c1 :: 7.9
4. COc1ccc2cccc(CCNC(=O)C3CN(C(=O)c4cc([N+](=O)[O-])cc([N+](=O)[O-])c4)C3)c2c1 :: 15.8

Lab note: next compound to report on.
Query: What does the data say about its cytotoxicity at 24 h, 80 µM? Entry: COc1ccc2cccc(CCNC(=O)C3CN(C(=O)c4ccncc4Cl)C3)c2c1
Result: 4.8

----------
System: PC-12
procedure_text: Neurorestorative activity against H2O2-induced oxidant injury in rat PC12 cells assessed as restorative rate at 10 uM measured after 48 hrs pretreated with 200 uM H2O2 for 1 hr by MTT assay
Type: functional
Calls of active or inactive are those of the source. The calls are words filed in the database; no cut-off is given here.
assay_endpoint: Activity

// solved cases for Activity follow
1. COc1ccc2cccc(CCNC(=O)C3CN(S(=O)(=O)c4ccc(C)cc4)C3)c2c1 :: inactive
2. COc1ccc2cccc(CCNC(=O)C3CN(S(=O)(=O)c4ccc(Cl)cc4)C3)c2c1 :: 4.6%
3. COc1ccc(OC)c(C(=O)N2CC(C(=O)NCCc3cccc4ccc(OC)cc34)C2)c1 :: inactive
4. COc1ccc(C(=O)N2CC(C(=O)NCCc3cccc4ccc(OC)cc34)C2)cc1 :: inactive

Lab note: next molecule to report on.
Query: What does the data say about its Activity? Entry: CNCCC(Oc1ccc(C(F)(F)F)cc1)c1ccccc1 (stereo not given)
Result: 2.8%

----------
procedure_text: Cytotoxicity against human HEK293 cells as inhibition of cell viability at 80 uM after 24 hrs by MTT assay
Type: cell-based
measurement_conditions: HEK293 cells, read-out: INH
Provide the recorded cytotoxicity at 24 h, 80 µM for the entries that follow.
# do not omit the unit; it follows the number

1. COc1ccc2cccc(CCNC(=O)C3CN(C(=O)N(C)C)C3)c2c1 :: 2.5%

Provide cytotoxicity at 24 h, 80 µM values for the following items, in order.
1. COc1ccc2cccc(CCNC(=O)C3CN(S(=O)(=O)N(C)C)C3)c2c1
2. COc1ccc2cccc(CCNC(=O)C3CN(C(=O)c4ccncc4Cl)C3)c2c1
3. COc1ccc2cccc(CCNC(=O)C3CN(C(=O)c4ccco4)C3)c2c1

Result:
1: 4.6%; 2: 17.3%; 3: 26.4%

Provide cytotoxicity at 24 h, 80 µM values for the following items, in order.
1. COc1ccc2cccc(CCNC(=O)C3CN(C(=O)c4ccccn4)C3)c2c1
2. COc1ccc2cccc(CCNC(=O)C3CN(S(=O)(=O)c4ccc(C)cc4)C3)c2c1

Result:
1. 31.8%
2. 3.6%

Provide cytotoxicity at 24 h, 80 µM values for the following items, in order.
1. COc1ccc(OC)c(C(=O)N2CC(C(=O)NCCc3cccc4ccc(OC)cc34)C2)c1
2. CCC(=O)N1CC(C(=O)NCCc2cccc3ccc(OC)cc23)C1
3. COc1cc(OC)cc(C(=O)N2CC(C(=O)NCCc3cccc4ccc(OC)cc34)C2)c1
4. COc1ccc2cccc(CCNC(=O)C3CN(C(=O)c4ccccc4)C3)c2c1

Result:
1: 33.4%; 2: 11.2%; 3: 13.1%; 4: 11.9%

----------
procedure_text: Cytotoxicity against human HEK293 cells as inhibition of cell viability at 80 uM after 24 hrs by MTT assay
Type: cell-based
measurement_conditions: HEK293 cells, read-out: INH
The threshold is inclusive: cytotoxicity at 24 h, 80 µM of exactly 9% counts as 1.0; values below receive 0.0.

Worked cases, answers included:
1. COc1ccc2cccc(CCNC(=O)C3CN(C(=O)c4ccc(C#N)cc4)C3)c2c1 :: 1.0
2. COc1ccc2cccc(CCNC(=O)C3CN(S(=O)(=O)c4ccc(Cl)cc4)C3)c2c1 :: 1.0

Query: Dear colleague, could you confirm whether COc1ccc2cccc(CCNC(=O)C3CN(C(=O)c4ccc(C(F)(F)F)cc4)C3)c2c1 has cytotoxicity at 24 h, 80 µM at or above 9%?
Result: 1.0

Query: Dear colleague, could you confirm whether COc1ccc2cccc(CCNC(=O)C3CN(C(C)=O)C3)c2c1 has cytotoxicity at 24 h, 80 µM at or above 9%?
Result: 0.0

----------
Tested on: Mus musculus
procedure_text: Antidepressant-like activity in C57 mouse assessed as reduction in immobility time at 32 mg/kg, ip administered from day 2 to 15 measured on 2nd and 15th day 30 mins after drug challenge by forced swim test
Format: functional
measurement_conditions: route intraperitoneal
assay_endpoint: inhibition in vivo at 32 mg/kg (%)
One number for each entry, in %.

Provide inhibition in vivo at 32 mg/kg values for the following items, in order.
1. CNCCC(Oc1ccc(C(F)(F)F)cc1)c1ccccc1 (stereo not given)
2. COc1ccc2cccc(CCNC(=O)C3CN(C(=O)C(F)(F)F)C3)c2c1
3. COc1ccc2cccc(CCNC(C)=O)c2c1
4. COc1ccc2cccc(CCNC(=O)C3CN(C(=O)c4ccc(Cl)cc4)C3)c2c1

Result:
[50.7, 58.4, 8.4, 49.1]

Query: What does the data say about its inhibition in vivo at 32 mg/kg? Entry: COc1ccc2cccc(CCNC(=O)C3CN(C(=O)c4ccco4)C3)c2c1
Result: 36.2

----------
procedure_text: Cytotoxicity against human L02 cells as inhibition of cell viability at 80 uM after 24 hrs by MTT assay
Assay type: cell-based
measurement_conditions: L02 cells, read-out: INH
Label key: MET means cytotoxicity at 24 h, 80 µM under 3%; NOT MET means cytotoxicity at 24 h, 80 µM of 3% or more.

Worked cases, answers included:
1. COc1ccc2cccc(CCNC(=O)C3CN(C(=O)c4ccc(Cl)cc4)C3)c2c1 :: NOT MET
2. COc1ccc2cccc(CCNC(=O)C3CN(C(=O)OCc4ccccc4)C3)c2c1 :: NOT MET
3. COc1ccc2cccc(CCNC(=O)C3CN(C(=O)c4ccco4)C3)c2c1 :: NOT MET
4. COc1ccc2cccc(CCNC(=O)C3CN(S(=O)(=O)N(C)C)C3)c2c1 :: NOT MET
5. COc1ccc2cccc(CCNC(=O)C3CN(C(=O)c4ccccc4)C3)c2c1 :: NOT MET
6. COc1ccc2cccc(CCNC(=O)C3CN(C(=O)c4ccc(C#N)cc4)C3)c2c1 :: MET
7. CCC(=O)N1CC(C(=O)NCCc2cccc3ccc(OC)cc23)C1 :: MET
8. COc1ccc(OC)c(C(=O)N2CC(C(=O)NCCc3cccc4ccc(OC)cc34)C2)c1 :: MET

Query: # check: cytotoxicity at 24 h, 80 µM < 3% for COc1ccc2cccc(CCNC(=O)C3CN(C(=O)C(F)(F)F)C3)c2c1
Result: MET

Query: # check: cytotoxicity at 24 h, 80 µM < 3% for COc1ccc(C(=O)N2CC(C(=O)NCCc3cccc4ccc(OC)cc34)C2)cc1
Result: NOT MET
